// reported Cell kill IC50, SKBR3 per item
Target: T1, human nectin-4 protein expressed on the surface of cells (human, UniProt Q96NY8 32-510)
T1 sequence: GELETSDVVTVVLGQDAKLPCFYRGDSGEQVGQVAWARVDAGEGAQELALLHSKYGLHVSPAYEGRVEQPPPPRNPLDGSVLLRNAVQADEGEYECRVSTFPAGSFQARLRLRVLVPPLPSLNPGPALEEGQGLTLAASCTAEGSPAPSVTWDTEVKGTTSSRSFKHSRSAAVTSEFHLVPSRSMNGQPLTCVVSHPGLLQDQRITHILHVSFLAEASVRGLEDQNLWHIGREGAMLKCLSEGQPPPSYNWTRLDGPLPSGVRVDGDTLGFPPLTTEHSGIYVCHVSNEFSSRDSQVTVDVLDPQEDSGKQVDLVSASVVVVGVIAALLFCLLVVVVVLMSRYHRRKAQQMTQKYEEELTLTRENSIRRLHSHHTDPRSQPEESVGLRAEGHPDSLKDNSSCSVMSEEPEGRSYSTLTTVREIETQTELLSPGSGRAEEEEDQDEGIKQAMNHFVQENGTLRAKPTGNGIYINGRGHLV
Assay: cell-based or functional assay

binder	Cell kill IC50, SKBR3 [nM]
Nectin-4 5D9 VH3/VL5 (antibody, V domains shown, Humanized; also called 5D9 VH variant 3 / 5D9 VL variant 5) VH: QVQLQESGPGLVKPSETLSLTCTVSGGSITNYGVHWIRQPPGKGLEWLGVIWSGGSTDYNPSLKSRVTISVDTSKNQFSLKLSSVTAADTAVYYCARSGKWYYFDYWGQGTLVTVSS VL: DIQMTQSPSSLSASVGDRVTITCRASQSIYSNLAWYQQKPGKAPKLLVYAATNLQSGVPSRFSGSGSGTDFTLTISSLQPEDFATYYCQHFWGTPTFGGGTKVEIK	14.9
Nectin-4 5D9 VH3/VL1 (antibody, V domains shown, Humanized; also called 5D9 VH variant 3 / 5D9 VL variant 1) VH: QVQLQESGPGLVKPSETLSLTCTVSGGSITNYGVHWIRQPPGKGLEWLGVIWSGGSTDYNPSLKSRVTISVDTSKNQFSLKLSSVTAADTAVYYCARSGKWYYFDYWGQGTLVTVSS VL: DIQMTQSPASLSASVGDTVTITCRASQNIYSNLAWYQQKQGKSPQLLVYAATNLADGVPSRFSGSGSGTQYTLKINSLQSEDFGTYYCQHFWGTPTFGGGTKVEIK	46.9
Nectin-4 5D9 VH4/VL5 (antibody, V domains shown, Humanized; also called 5D9 VH variant 4 / 5D9 VL variant 5; Nectin-4 VH4/VL5) VH: QVQLQQSGPGLVKPSETLSLTCTVSGFSLTNYGVHWVRQPPGKGLEWLGVIWSGGSTDYNPSLKSRLTISRDTSKNQVSFKMSSVTAADTAVYYCARSGKWYYFDYWGQGTLVTVSS VL: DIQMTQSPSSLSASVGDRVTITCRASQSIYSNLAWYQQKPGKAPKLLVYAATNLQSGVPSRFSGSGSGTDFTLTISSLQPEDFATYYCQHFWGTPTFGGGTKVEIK	7.25
